B1: TPR t1 (parent)
chain: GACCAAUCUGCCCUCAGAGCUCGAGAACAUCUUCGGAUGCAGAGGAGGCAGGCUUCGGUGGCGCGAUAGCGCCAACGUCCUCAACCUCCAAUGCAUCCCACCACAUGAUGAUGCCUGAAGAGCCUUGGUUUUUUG

# Variants of: B1
# assayOverview: polymerase ribozyme fitness, log enrichment relative to wild type (log ratio); higher = more active; in vitro selection for triplet polymerase activity
Classification field: class 1 = polymerase ribozyme fitness (log ratio) at or over -3; class 0 = polymerase ribozyme fitness (log ratio) under -3.

Query: Kindly determine if polymerase ribozyme fitness (log ratio) recorded for U21G C72A is above or exactly -3.
Response: class 1

Query: Kindly determine if polymerase ribozyme fitness (log ratio) recorded for G45C G93U is above or exactly -3.
Response: class 0

Query: Kindly determine if polymerase ribozyme fitness (log ratio) recorded for G17U A24G A26G U112A is above or exactly -3.
Response: class 0

Query: Kindly determine if polymerase ribozyme fitness (log ratio) recorded for U33G G35U G69U U78G A91C C114G G128C U132A G135A is above or exactly -3.
Response: class 0

Query: Kindly determine if polymerase ribozyme fitness (log ratio) recorded for C8G C12U G63A G122A C123U is above or exactly -3.
Response: class 1

Query: Kindly determine if polymerase ribozyme fitness (log ratio) recorded for A41U C79U is above or exactly -3.
Response: class 1

Query: Kindly determine if polymerase ribozyme fitness (log ratio) recorded for C4U G19A G71A G120C is above or exactly -3.
Response: class 0

Query: Kindly determine if polymerase ribozyme fitness (log ratio) recorded for G45C C53G U81A A91C is above or exactly -3.
Response: class 0

Query: Kindly determine if polymerase ribozyme fitness (log ratio) recorded for A50C U116A U131A is above or exactly -3.
Response: class 0

Query: Kindly determine if polymerase ribozyme fitness (log ratio) recorded for A46U C114G is above or exactly -3.
Response: class 0

Query: Kindly determine if polymerase ribozyme fitness (log ratio) recorded for G10C G61U is above or exactly -3.
Response: class 1

Query: Kindly determine if polymerase ribozyme fitness (log ratio) recorded for A24G C40A G117A C124G is above or exactly -3.
Response: class 0

Query: Kindly determine if polymerase ribozyme fitness (log ratio) recorded for `A46U` is above or exactly -3.
Response: class 1

Query: Kindly determine if polymerase ribozyme fitness (log ratio) recorded for C13U C123A is above or exactly -3.
Response: class 1

Query: Kindly determine if polymerase ribozyme fitness (log ratio) recorded for C8G C20A C72U G77A is above or exactly -3.
Response: class 1

Query: Kindly determine if polymerase ribozyme fitness (log ratio) recorded for C40U C56U A90U is above or exactly -3.
Response: class 1

Query: Kindly determine if polymerase ribozyme fitness (log ratio) recorded for A6C G61U U78C A100U G120A U131C is above or exactly -3.
Response: class 1

Query: Kindly determine if polymerase ribozyme fitness (log ratio) recorded for G10A G19A C70A U96A C104U is above or exactly -3.
Response: class 0

Query: Kindly determine if polymerase ribozyme fitness (log ratio) recorded for G44A G52U U87A is above or exactly -3.
Response: class 1

Query: Kindly determine if polymerase ribozyme fitness (log ratio) recorded for G10A C79A C123U is above or exactly -3.
Response: class 1

Query: Kindly determine if polymerase ribozyme fitness (log ratio) recorded for G58C C62A C114A G127A U130G is above or exactly -3.
Response: class 0

Query: Kindly determine if polymerase ribozyme fitness (log ratio) recorded for G48U G57A is above or exactly -3.
Response: class 1
